Value source: patent US7550456B2

- target_or_system: human hNET (Homo sapiens, UniProt P23975)
- Construct: expressed in transfected cells; host or cells: MDCK-Net6 (MDCK cells, stably transfected)
- Sequence (P23975 whole entry): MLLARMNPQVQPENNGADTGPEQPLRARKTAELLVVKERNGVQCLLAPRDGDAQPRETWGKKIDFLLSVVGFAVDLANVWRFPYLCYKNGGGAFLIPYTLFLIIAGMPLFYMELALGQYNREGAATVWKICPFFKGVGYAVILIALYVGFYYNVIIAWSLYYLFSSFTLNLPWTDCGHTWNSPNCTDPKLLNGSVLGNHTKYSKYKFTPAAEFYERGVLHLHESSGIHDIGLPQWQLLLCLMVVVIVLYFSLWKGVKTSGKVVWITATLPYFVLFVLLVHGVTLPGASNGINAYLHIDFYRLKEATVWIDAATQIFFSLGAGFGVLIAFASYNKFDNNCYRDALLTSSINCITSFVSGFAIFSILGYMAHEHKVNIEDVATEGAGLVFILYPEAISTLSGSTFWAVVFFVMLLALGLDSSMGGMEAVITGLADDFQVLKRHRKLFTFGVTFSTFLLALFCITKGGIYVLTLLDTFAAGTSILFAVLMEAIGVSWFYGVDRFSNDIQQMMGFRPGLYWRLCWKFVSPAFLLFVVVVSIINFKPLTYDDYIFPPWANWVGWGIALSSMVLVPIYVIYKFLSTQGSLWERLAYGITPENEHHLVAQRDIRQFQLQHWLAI
- assay_procedure: Norepinephrine (NE) uptake assay in MDCK-Net6 cells
- Assay type: cell-based
- condition_description: 10 μM test compound (stated in the cell), [3H]NE uptake
Where a name gives a salt, the structure may show the parent alone.
assay_metric: inhibition at 10 µM (%)

[[record]]
compound = "OC1(C(CN2CCNCC2)c2ccc(Oc3ccccc3)cc2)CCCCC1 (stereo not drawn) [Example 307, dihydrochloride]"
recorded_result = 44.5


[P] CN1CCN(CC(c2ccc(Oc3ccccc3)cc2)C2(O)CCCCC2)CC1 (stereo not drawn) [Example 308, dihydrochloride]
[Q] COc1ccc(C(CN2CCN(C)CC2)C2(O)CCCCC2)cc1-c1cccc(OC(F)(F)F)c1 (stereo not drawn) [Example 256, dihydrochloride]
Task: Rank P against Q by their inhibition at 10 µM values and give the higher one. Bench note: the answer is the label of the chosen record.
Result: Q

====

- target_or_system: human hNET (Homo sapiens, UniProt P23975)
- Construct: expressed in transfected cells; host or cells: MDCK-Net6 (MDCK cells, stably transfected)
- assay_procedure: Norepinephrine (NE) uptake assay in MDCK-Net6 cells
- Assay type: cell-based
- condition_description: 1 μM test compound, [3H]NE uptake, read-out: % Inhibition @ 1 μM (hNET)
Counter-ions that a name gives are not always drawn.
assay_metric: inhibition at 1 µM (%)

[[record]]
molecule = "OC1(C(CN2CCNCC2)c2ccccc2-c2ccccc2)CCCCC1 (stereo not drawn) [Example 149, dihydrochloride]"
target_or_system = "human hNET (Homo sapiens, UniProt P23975)"
assay_metric = "inhibition at 1 µM"
recorded_result = 31


[A] OC1(C(CN2CCNCC2)c2ccc(-c3cccc(OC(F)(F)F)c3)cc2)CCC1 (stereo not drawn) [Example 183, dihydrochloride]
[B] CC#Cc1cccc(C(CN2CCNCC2)C2(O)CCCCC2)c1 (stereo not drawn) [Example 300, dihydrochloride]
Task: Returns: the label, A or B , whose recorded inhibition at 1 µM is the lower number. Bench note: the answer is the label of the chosen record.
Result: A
(A: 16%, B: 38%)

====

- target_or_system: human hNET (Homo sapiens, UniProt P23975)
- Construct: expressed in transfected cells; host or cells: MDCK-Net6 (MDCK cells, stably transfected)
- assay_procedure: Norepinephrine (NE) uptake assay in MDCK-Net6 cells
- Assay type: cell-based
- condition_description: 1 μM test compound, [3H]NE uptake, read-out: % Inhibition @ 1 μM (hNET)
Structures can show the parent of a compound that is named as a salt.
assay_metric: inhibition at 1 µM (%)

[[record]]
molecule = "COc1cc(C(CN2CCN(C)CC2)C2(O)CCCCC2)ccc1OCc1ccccc1 (stereo not shown) [Example 443, dihydrochloride]"
unit_descriptor = "%"
recorded_result = 90

[[record]]
molecule = "OC1(C(CN2CCNCC2)c2ccc(OCc3ccccc3)c(C(F)(F)F)c2)CCCCC1 (stereo not shown) [Example 263, dihydrochloride]"
unit_descriptor = "%"
recorded_result = 31

[[record]]
molecule = "CN1CCN(CC(c2ccc(-c3ccccc3)cc2)C2(O)CCCCC2)CC1 (stereo not shown) [Example 158, dihydrochloride]"
unit_descriptor = "%"
recorded_result = 57

[[record]]
molecule = "OC1(C(CN2CCN(Cc3ccc4c(c3)OCO4)CC2)c2ccc(OC(F)(F)F)cc2)CCCCC1 (stereo not shown) [Example 285, dihydrochloride]"
unit_descriptor = "%"
recorded_result = 20

[[record]]
molecule = "OC1(C(CN2CCNCC2)c2ccc(OCc3ccc(Br)cc3F)c(Cl)c2)CCCCC1 (stereo not shown) [Example 425, dihydrochloride]"
unit_descriptor = "%"
recorded_result = 80

[[record]]
molecule = "OC1(C(CN2CCNCC2)c2cccc(-c3ccc(Cl)cc3)c2)CCCCC1 (stereo not shown) [Example 137, dihydrochloride]"
unit_descriptor = "%"
recorded_result = 41


[A] C#Cc1cccc(C(CN2CCN(C)CC2)C2(O)CCCCC2)c1 (stereo not shown) [Example 299, dihydrochloride]
[B] CN1CCN(CC(c2ccc(-c3ccc(Cl)c(Cl)c3)cc2)C2(O)CCC2)CC1 (stereo not shown) [Example 296, dihydrochloride]
Task: Returns: the label, A or B , whose recorded inhibition at 1 µM is the lower number. Bench note: the answer is the label of the chosen record.
Result: B
